Source: patent US20240246960A1

Test Target: pDNA-PK ser2056 induction in HCT116 spheroids (Homo sapiens, UniProt P78527)
Construct: endogenous in cells; host or cells: HCT116 multicellular tumour spheroids
Protocol Text: Multicellular tumour spheroid + radiation, pDNA-PK inhibition, HCT116
Format: cell-based
Protocol Conditions: Example 9 Study 2; 20 Gy; 20% O2; read-out: Spheroid Cell line: HCT116 Immunohistochemical endpoint pDNA-PK inhibition EC50
pEC50: −log10 of the molar value.
Reported values of pEC50 for individual entries

CS(=O)(=O)Nc1cnc2cc(N3CCOCC3)nc(O[C@H]3CC[C@@H](NC(=O)c4ncccn4)CC3)c2c1 [Compound 177] : 5.00 to 6.00
O=C(N[C@H]1CC[C@@H](Oc2nc(N3CCOCC3)cc3ncccc23)CC1)c1scnc1Cl [Compound 139] : 4.00 to 5.00
CS(=O)(=O)Nc1cnc(N[C@H]2CC[C@@H](Oc3nc(N4CCOCC4)cc4ncccc34)CC2)nc1 [Compound 44] : 6.00 to 6.30

Let us examine a further case.
Query: pDNA-PK ser2056 induction in HCT116 spheroids (Homo sapiens, UniProt P78527) / pEC50 / Nc1cnc(N[C@H]2CC[C@@H](Oc3nc(N4CCOCC4)cc4ncccc34)CC2)nc1 [Compound 43] : value?
Response: 6.30 to 8.00

###

Reported values of microsomal CLint at 0.1 uM for individual entries
Protocol Text: Microsomal stability assay, human liver microsomes
Assay type: in vitro ADME
Protocol Conditions: both sexes, human, liver microsomes, pH 7.4, Example 11

Consider the following illustrative entries.
CC(c1cnc([N+](=O)[O-])n1C)N(c1cnc2cc(N3CCOCC3)nc(OC3CCC(Nc4ncccn4)CC3)c2c1)S(C)(=O)=O (centres unmarked) [LFA010] : < 116 µL/min/mg
Cn1c(CN(c2cnc3cc(N4CCOCC4)nc(OC4CCC(Nc5ncc(C(F)(F)F)cn5)CC4)c3c2)S(C)(=O)=O)cnc1[N+](=O)[O-] (centres unmarked) [LFA023] : < 116 µL/min/mg
Oc1cnc2cc(N3CCOCC3)nc(O[C@H]3CC[C@@H](Nc4ncccn4)CC3)c2c1 [LFA117] : < 116 µL/min/mg
CS(=O)(=O)Nc1cnc2cc(N3CCOCC3)nc(O[C@H]3CC[C@@H](Nc4ncc(C(F)(F)F)cn4)CC3)c2c1 [LFA022] : < 116 µL/min/mg
CC(c1cnc([N+](=O)[O-])n1C)N(c1cnc2cc(N3CCOCC3)nc(OC3CCC(Nc4ncc(C#N)cn4)CC3)c2c1)S(C)(=O)=O (centres unmarked) [LFA027] : > 116 µL/min/mg
CS(=O)(=O)Nc1cnc2cc(N3CCOCC3)nc(O[C@H]3CC[C@@H](NC(=O)c4ncccn4)CC3)c2c1 [LFA015] : < 116 µL/min/mg
CS(=O)(=O)Nc1cnc2cc(N3CCOCC3)nc(O[C@H]3CC[C@@H](Nc4ncccn4)CC3)c2c1 [LFA006] : < 116 µL/min/mg
CC(c1cnc([N+](=O)[O-])n1C)N(c1cnc2cc(N3CCOCC3)nc(OC3CCC(Nc4ncc(C(F)(F)F)cn4)CC3)c2c1)S(C)(=O)=O (centres unmarked) [LFA024] : < 116 µL/min/mg
O=C(N[C@H]1CC[C@@H](Oc2nc(N3CCOCC3)cc3ncc(O)cc23)CC1)c1ncccn1 [LFA115] : < 116 µL/min/mg
CS(=O)(=O)Nc1cnc2cc(N3CCOCC3)nc(O[C@H]3CC[C@@H](Nc4ncc(C#N)cn4)CC3)c2c1 [LFA025] : < 116 µL/min/mg

Let us examine a further case.
Query: Dear colleague, I am looking for the recorded microsomal CLint at 0.1 uM of the following compound: Cn1c(CN(c2cnc3cc(N4CCOCC4)nc(OC4CCC(Nc5ncc(C#N)cn5)CC4)c3c2)S(C)(=O)=O)cnc1[N+](=O)[O-] (centres unmarked) [LFA026]
Response: > 116 µL/min/mg
